Entries and their pEC50
# Tested on: HCoV-229E
# test_details: Cytopathic effect (CPE) reduction assay with HCoV-229E in HEL cells
# Format: cell-based, human coronavirus 229E
# condition_context: Human coronavirus 229E, 120 h; HCoV-229E-infected HEL cells; protection against virus-induced CPE by MTS cell viability assay; five days at 35 °C; read-out: Antiviral EC50 MTS
Scale: pEC50 equals -log10([C]), with [C] in mol/L.

Recorded pEC50, per entry:
{"compound": "COC(=O)C[C@H](NC(=O)OC(C)(C)C)C(=O)N(Cc1ccc(C(F)(F)F)cc1)C1(C(=O)NCc2ccccc2)CCN(Cc2ccccc2)CC1", "pEC50": 5.38}
{"compound": "COc1ccc(CN2CCC(C(=O)NCc3ccccc3)(N(Cc3ccccc3)C(=O)C(Cc3ccccc3)NC(=O)OC(C)(C)C)CC2)cc1 (stereo not shown)", "pEC50": 5.37}
{"compound": "COC(=O)C[C@H](NC(=O)OC(C)(C)C)C(=O)N(Cc1ccc([N+](=O)[O-])cc1)C1(C(=O)NCc2ccccc2)CCN(Cc2ccccc2)CC1", "pEC50": 5.40}
{"compound": "COC(=O)C[C@H](NC(=O)OC(C)(C)C)C(=O)N(Cc1ccc(F)cc1)C1(C(=O)NCc2ccccc2)CCN(Cc2ccccc2)CC1", "pEC50": 5.13}

response.value for COC(=O)C[C@H](N)C(=O)N(Cc1ccccc1)C1(C(=O)NCc2ccccc2)CCN(Cc2ccccc2)CC1 (field: pEC50) = 4.21

Consider COC(=O)C[C@H](NC(=O)OC(C)(C)C)C(=O)N(Cc1ccc(F)cc1)C1(C(=O)NCc2ccccc2)CCN(C)CC1 . Its measured pEC50 is 4.66

Kindly note the recorded pEC50 for COC(=O)C[C@H](NC(=O)OC(C)(C)C)C(=O)N(Cc1ccc(F)c(F)c1)C1(C(=O)NCc2ccccc2)CCN(Cc2ccccc2)CC1 , which is 5.43

* * *

# Test system: HCoV-229E
# test_details: Cytopathic effect (CPE) reduction assay with HCoV-229E in HEL cells
# Type: cell-based, human coronavirus 229E
# condition_context: Human coronavirus 229E, 120 h; HCoV-229E-infected HEL cells; protection against virus-induced CPE by microscopic scoring; five days at 35 °C; read-out: Antiviral EC50 Microscopy
measured_quantity: EC50

{"compound": "COC(=O)C[C@H](NC(=O)OC(C)(C)C)C(=O)N(Cc1ccc(F)cc1)C1(C(=O)NCc2ccccc2)CCN(C2CCCCC2)CC1 [Compound 6]", "target": "HCoV-229E", "EC50": "22 µM"}
{"compound": "CC(C)(C)OC(=O)NCC(=O)N(Cc1ccccc1)C1(C(=O)NCc2ccccc2)CCN(Cc2ccccc2)CC1 [Compound 39]", "target": "HCoV-229E", "EC50": "11 µM"}
{"compound": "COC(=O)C[C@H](NC(=O)OCc1ccccc1)C(=O)N(CCNc1ccccc1)C1(C(=O)NCc2ccccc2)CCN(Cc2ccccc2)CC1 [Compound 57]", "target": "HCoV-229E", "EC50": "10 µM"}
{"compound": "COC(=O)C[C@H](NC(=O)OCc1ccccc1)C(=O)N(CCNc1ccccc1)C1(C(=O)NCc2ccccc2)CCN(CCc2ccccc2)CC1 [Compound 58]", "target": "HCoV-229E", "EC50": "7.9 µM"}
{"compound": "CC(C)(C)OC(=O)N[C@@H](Cc1ccccc1)C(=O)N(Cc1ccccc1)C1(C(=O)NCc2ccccc2)CCN(Cc2ccccc2)CC1 [Compound 46]", "target": "HCoV-229E", "EC50": "7.4 µM"}

Reported EC50 for COC(=O)C[C@H](N)C(=O)N(Cc1ccccc1)C1(C(=O)NCc2ccccc2)CCN(Cc2ccccc2)CC1 [Compound 32] was 55 µM

* * *

# Test system: HCoV-229E
# test_details: Cytopathic effect (CPE) reduction assay with HCoV-229E in HEL cells
# Assay type: cell-based, human coronavirus 229E
# condition_context: Human coronavirus 229E, 120 h; HCoV-229E-infected HEL cells; protection against virus-induced CPE by microscopic scoring; five days at 35 °C; read-out: Antiviral EC50 Microscopy
EC50 less than 8 µM is 1; EC50 greater than or equal to 8 µM is -1.

{"molecule": "CCC(C)N(C(=O)[C@H](CC(=O)OC)NC(=O)OCc1ccccc1)C1(C(=O)NCc2ccccc2)CCN(Cc2ccccc2)CC1 (stereo partly drawn) [Compound 36]", "target": "HCoV-229E", "group": -1}
{"molecule": "COC(=O)C[C@H](NC(=O)OC(C)(C)C)C(=O)N(C1CC1)C1(C(=O)NCc2ccccc2)CCN(Cc2ccccc2)CC1 [Compound 21]", "target": "HCoV-229E", "group": -1}
{"molecule": "COC(=O)C[C@H](NC(=O)OC(C)(C)C)C(=O)N(Cc1cccc(F)c1)C1(C(=O)NCc2ccccc2)CCN(Cc2ccccc2)CC1 [Compound 27]", "target": "HCoV-229E", "group": -1}
{"molecule": "COC(=O)C[C@H](NC(=O)OC(C)(C)C)C(=O)N(Cc1ccc(F)cc1)C1(C(=O)NCc2ccccc2)CC[N+](C)(Cc2ccccc2)CC1 (stereo partly drawn) [Compound 8]", "target": "HCoV-229E", "group": -1}
{"molecule": "CC(C)(C)OC(=O)NC(Cc1ccccc1)C(=O)N(Cc1ccccc1)C1(C(=O)NCc2ccccc2)CCN(Cc2ccc([N+](=O)[O-])cc2)CC1 (stereo not drawn) [Compound 63]", "target": "HCoV-229E", "group": -1}
{"molecule": "COC(=O)C[C@H](NC(=O)OC(C)(C)C)C(=O)N(Cc1ccc(C(F)(F)F)cc1)C1(C(=O)NCc2ccccc2)CCN(Cc2ccccc2)CC1 [Compound 24]", "target": "HCoV-229E", "group": 1}

input: Consider COC(=O)C[C@H](NC(=O)OCc1ccccc1)C(=O)N(Cc1ccc(C)cc1)C1(C(=O)NCc2ccccc2)CCN(CCc2ccccc2)CC1 [Compound 59] . Does its EC50 lie strictly below 8 µM?
output: -1

input: Given O=C(N/C(=C\c1ccccc1)C(=O)N1CCC(O)(c2ccc(Br)cc2)CC1)c1ccccc1 [Compound K22, reference compound] , is recorded EC50 strictly lower than 8 µM?
output: 1

input: Please indicate whether the reported EC50 of CC(C)(C)OC(=O)N[C@@H](CC(=O)O)C(=O)N(Cc1ccc(F)cc1)C1(C(=O)NCc2ccccc2)CCN(Cc2ccccc2)CC1 [Compound 43] is strictly below 8 µM.
output: -1

input: Quick check: does COC(=O)C[C@H](NC(=O)OC(C)(C)C)C(=O)N(Cc1ccccc1)C1(C(=O)NC2CCCCC2)CCN(Cc2ccccc2)CC1 [Compound 16] have EC50 under 8 µM?
output: -1

input: Confirm or reject: EC50 of COC(=O)C[C@H](NC(=O)OC(C)(C)C)C(=O)N(Cc1ccc(F)c(F)c1)C1(C(=O)NCc2ccccc2)CCN(Cc2ccccc2)CC1 [Compound 28] lies strictly below 8 µM
output: 1

* * *

# test_details: in vitro
# condition_context: human
# log10 of CC50 per record follows
Please note: log10 values; quantity CC50; unit µM.

Worked examples, 8 molecules total:
{"molecule": "COC(=O)C[C@H](NC(=O)OC(C)(C)C)C(=O)N(C)C1(C(=O)NCc2ccccc2)CCN(Cc2ccccc2)CC1", "measured_quantity": "log10 of CC50", "assay_value": 1.26}
{"molecule": "COC(=O)C[C@H](NC(=O)OC(C)(C)C)C(=O)N(Cc1ccc(F)cc1)C1(C(=O)NCc2ccccc2)CCN(CCc2ccccc2)CC1", "measured_quantity": "log10 of CC50", "assay_value": 1.58}
{"molecule": "COC(=O)C[C@H](NC(=O)OC(C)(C)C)C(=O)N(Cc1ccc(F)cc1)C1(C(=O)NCc2ccccc2)CCN(C2CCCCC2)CC1", "measured_quantity": "log10 of CC50", "assay_value": 1.93}
{"molecule": "COC(=O)C[C@H](N)C(=O)N(Cc1ccc(F)cc1)C1(C(=O)NCc2ccccc2)CCN(Cc2ccccc2)CC1", "measured_quantity": "log10 of CC50", "assay_value": 0.69}
{"molecule": "COC(=O)C[C@H](NC(=O)OC(C)(C)C)C(=O)N(Cc1ccc(F)cc1)C1(C(=O)NCc2ccccc2)CCN(Cc2cc(F)cc(F)c2)CC1", "measured_quantity": "log10 of CC50", "assay_value": 1.00}
{"molecule": "COC(=O)C[C@H](NC(=O)OC(C)(C)C)C(=O)N(Cc1ccccc1)C1(C(=O)NC(C)(C)C)CCN(Cc2ccccc2)CC1", "measured_quantity": "log10 of CC50", "assay_value": 1.89}
{"molecule": "COC(=O)C[C@H](NC(=O)OC(C)(C)C)C(=O)N(Cc1ccc(C)cc1)C1(C(=O)NCc2ccccc2)CCN(Cc2ccccc2)CC1", "measured_quantity": "log10 of CC50", "assay_value": 1.49}
{"molecule": "COC(=O)C[C@H](NC(=O)OC(C)(C)C)C(=O)N(CCNc1ccccc1)C1(C(=O)NCc2ccccc2)CCN(Cc2ccccc2)CC1", "measured_quantity": "log10 of CC50", "assay_value": 1.56}

# molecule COC(=O)C[C@H](NC(=O)OC(C)(C)C)C(=O)N(Cc1ccc(Cl)cc1)C1(C(=O)NCc2ccccc2)CCN(Cc2ccccc2)CC1 ; its log10 of CC50 = 1.08

Entry COc1ccc(CN2CCC(C(=O)NCc3ccccc3)(N(Cc3ccccc3)C(=O)C(Cc3ccccc3)NC(=O)OC(C)(C)C)CC2)cc1 (stereo not shown) ; log10 of CC50 = 1.45
